Let's look at some compounds and their measured Control.
molecular target: Sodium-dependent dopamine transporter (Rattus norvegicus); experiment: Inhibitory effect of [3H]cocaine binding when pre incubation was conducted under reduced lighting; set-up: concentration or dose not given beside the values
Number only, in %; omit the unit.

Problem: Request the reported Control associated with COC(=O)C1C(OC(=O)Nc2ccc(N=[N+]=[N-])cc2)C[C@H]2CCC1N2C (stereo not given in full)
Result: 86.3

Problem: Given COC(=O)C1C(OC(=O)Nc2ccc(N=C=S)cc2)C[C@H]2CCC1N2C (stereo not given in full) , state its recorded Control.
Result: 12.3

Problem: Entry COC(=O)[C@@H]1C2CC[C@@H](C[C@@H]1OC(=O)c1ccccc1)N2C (single isomer, unassigned) : reported Control = ?
Result: 138

Problem: Requested field: Control. Item: COC(=O)C1C(OC(=O)Nc2cccc(N=[N+]=[N-])c2)C[C@H]2CCC1N2C (stereo not given in full)
Result: 102

Problem: GET /values?readout=Control&item= COC(=O)C1C(OC(=O)Nc2cccc(N=C=S)c2)C[C@H]2CCC1N2C (stereo not given in full)
Result: 33.4

----------
organism: Rattus norvegicus; experiment: Tested for inhibition of [3H]-dopamine uptake into rat striatal synaptosomes; format: functional; settings: Brain
// reported pIC50 for each item listed
Here pIC50 is given on a logarithmic scale as minus log10 of the concentration in mol/L.

Guide cases for pIC50, answers given:
COC(=O)C1C(OC(=O)Nc2ccc(N=C=S)cc2)C[C@H]2CCC1N2C (some centres undefined) = 6.31
COC(=O)C1C(OC(=O)Nc2ccc(N=[N+]=[N-])cc2)C[C@H]2CCC1N2C (some centres undefined) = 5.93
COC(=O)C1C(OC(=O)Nc2cccc(N=[N+]=[N-])c2)C[C@H]2CCC1N2C (some centres undefined) = 5.41

Now for the compound whose pIC50 we want.
Problem: Could you share which pIC50 value was measured for COC(=O)[C@@H]1C2CC[C@@H](C[C@@H]1OC(=O)c1ccccc1)N2C (single isomer, unassigned) [COCAINE] ?
Result: 6.68

----------
target: Sodium-dependent dopamine transporter (Rattus norvegicus, UniProt P23977); experiment: Tested for inhibition of [3H]cocaine binding to rat striatal P2 membranes
Sequence (P23977 whole entry): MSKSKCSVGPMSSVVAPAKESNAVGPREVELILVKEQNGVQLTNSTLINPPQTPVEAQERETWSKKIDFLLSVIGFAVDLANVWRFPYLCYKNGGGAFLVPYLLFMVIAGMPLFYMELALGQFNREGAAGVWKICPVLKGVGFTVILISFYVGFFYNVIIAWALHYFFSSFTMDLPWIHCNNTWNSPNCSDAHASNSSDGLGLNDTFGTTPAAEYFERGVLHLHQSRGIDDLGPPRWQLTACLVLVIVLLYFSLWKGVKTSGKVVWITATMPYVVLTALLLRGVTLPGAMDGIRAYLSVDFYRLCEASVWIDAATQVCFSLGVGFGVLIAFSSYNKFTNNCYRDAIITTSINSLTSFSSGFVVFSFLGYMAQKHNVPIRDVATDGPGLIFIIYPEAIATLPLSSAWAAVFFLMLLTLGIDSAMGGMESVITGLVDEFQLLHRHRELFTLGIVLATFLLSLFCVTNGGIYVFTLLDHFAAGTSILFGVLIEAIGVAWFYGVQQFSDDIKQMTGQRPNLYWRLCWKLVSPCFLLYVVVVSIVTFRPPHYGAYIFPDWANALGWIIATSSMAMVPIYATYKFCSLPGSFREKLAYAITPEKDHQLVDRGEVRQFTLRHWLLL
# pIC50 listing for each entry below
// pIC50: -log10(molar conc.)

// solved cases for pIC50 follow
COC(=O)C1C(OC(=O)Nc2ccc(N=C=S)cc2)C[C@H]2CCC1N2C (some centres undefined) = 6.59
COC(=O)C1C(OC(=O)Nc2cccc(N=C=S)c2)C[C@H]2CCC1N2C (some centres undefined) = 6.02
COC(=O)C1C(OC(=O)Nc2ccc(N=[N+]=[N-])cc2)C[C@H]2CCC1N2C (some centres undefined) = 6.00

Problem: Param readout= pIC50; system= Sodium-dependent dopamine transporter (Rattus norvegicus, UniProt P23977); entry= COC(=O)C1C(OC(=O)Nc2cccc(N=[N+]=[N-])c2)C[C@H]2CCC1N2C (some centres undefined) ; returns value.
Result: 6.20

----------
molecular target: Sodium-dependent dopamine transporter (Rattus norvegicus) (UniProt P23977); assay: Inhibitory effect of [3H]cocaine binding when pre incubation was conducted under ultraviolet light; set-up: concentration or dose not given beside the values
Sequence (P23977 whole entry): as above
In this section, each of the compounds is paired with its reported Control.
Value expressed in %; do not type the unit.

Example entries begin here.
COC(=O)C1C(OC(=O)Nc2cccc(N=[N+]=[N-])c2)C[C@H]2CCC1N2C (stereo not given in full) = 39.1
COC(=O)C1C(OC(=O)Nc2cccc(N=C=S)c2)C[C@H]2CCC1N2C (stereo not given in full) = 29.1
COC(=O)[C@@H]1C2CC[C@@H](C[C@@H]1OC(=O)c1ccccc1)N2C (single isomer, unassigned) [COCAINE] = 74.1
COC(=O)C1C(OC(=O)Nc2ccc(N=C=S)cc2)C[C@H]2CCC1N2C (stereo not given in full) = 18.5

Proceeding to the next compound to report its Control.
Problem: Give its Control value. Item: COC(=O)C1C(OC(=O)Nc2ccc(N=[N+]=[N-])cc2)C[C@H]2CCC1N2C (stereo not given in full)
Result: 32.5
